// data source = PubChem BioAssay (NCI)

# Tested on: HCT-116 colon
# Assay Summary: NCI-60 one-dose screen, 48 h
# Condition Set: 10 µM
Compounds without any hit were thinned out: in the full panel of roughly 83,000, 20% have a hit. Calls of active or inactive are those of the source. The calls were made as follows: active = growth percent below 10; inactive = the rest.
Bench note: report the call from yes (1) = active, no (0) = inactive

NC(=S)NN=C1CCCC1    yes (1)

Incoming: Identify the outcome logged in this assay for the compound shown: `CCOC(=O)c1cc2cccc(OC)c2oc1=O`
Outgoing: no (0)

Incoming: Identify the outcome logged in this assay for the compound shown: `CC(C)CCCC(=O)O`
Outgoing: no (0)

---

# Tested on: UACC-257 melanoma
# Assay Summary: NCI-60 one-dose screen, 48 h (100 = growth as untreated, 0 = no growth, -100 = all killed)
# Condition Set: 10 µM
Compounds without any hit were thinned out: in the full panel of roughly 83,000, 20% have a hit.
Property: growth (%)
Give bare numbers, in %.

Consider the following illustrative entries.
O=S(=O)(O)CC(O)CN1CCN(CCO)CC1 (centres undefined)    97.8
O=C1Cc2cc(O)ccc2O1    103
C/C(=N\O)C1(O)CCCCC1    98.3
Nc1nc(OCc2ccccc2)c2[nH]cnc2n1    97.8
CCOC(=O)C1OC1c1ccccc1 (centres undefined)    106

Please supply growth for each of the following items, keeping them in order.
1. CN(C)Cc1cc(C(C)(C)CC(C)(C)C)ccc1O
2. COc1cccc(Sc2ccc([N+](=O)[O-])c3no[n+]([O-])c23)c1
3. CN(C)C(C)(C)CC(C)(C)C
4. O=c1[nH]c(O)c(/C=C2/C=Nc3ccccc32)[nH]1
5. Cc1cc2ccccc2c(O)c1C#N
6. CCC(C)(O)c1ccc(C)cc1 (centres undefined)
7. CC(=O)Oc1ccc(Br)cc1C(=O)O
8. S=C(Nc1ccccc1)N1CCCCC1

Outgoing:
1. 112
2. 96.7
3. 117
4. 101
5. 106
6. 105
7. 101
8. 95.9

The reported value for `C[N+](C)=c1ccc2nc3c(cc(Nc4ccccc4)c4ccccc43)oc-2c1` in terms of growth is 38.6

---

I'd be grateful if you could share measured growth for these entries.
# System: T-47D breast
# Assay Summary: NCI-60 one-dose screen, 48 h (100 = growth as untreated, 0 = no growth, -100 = all killed)
# Condition Set: 10 µM
The panel holds about 83,000 compounds, 20% with a hit somewhere; the sample as a whole holds those more often.
Answers are plain numbers, in %.

Consider the following illustrative entries.
CC(=O)OC(C(=O)O)c1ccccc1 (stereo not drawn)    118
O=C(O)COCC(=O)O    129
CCn1c(=O)n(C)c2c(=O)n(C)c(=O)n(C)c21    98
CC(=O)NC(N)=S    124
CC1NC(=O)NC1CCCCCC(=O)O (stereo not drawn)    101
CN(C)/N=C/c1ccccc1O    98.6

Please supply growth for each of the following items, keeping them in order.
1. C/C(=C\c1ccc([N+](=O)[O-])cc1)C(=O)O
2. CCOC(=O)CCCS(C)(=O)=O

Outgoing:
1: 98.8; 2: 102

---

# Test system: TK-10 renal
# Assay Summary: NCI-60 one-dose screen, 48 h
# Condition Set: 10 µM unless noted
About 83,000 compounds went through this panel and 20% of them were active in at least one assay; those are over-represented in the sample as a whole. Activity calls are given as the source filed them. Rule for the calls: active = growth percent below 10; inactive = the rest.
Bench note: report the call from active, inactive

Reference set, count: 5
CCCC(C)OCC(=O)O (configuration not stated)    inactive
CSc1[nH]c(=O)ncc1F    inactive
CC1CCCC(CC(N)=O)CC1 (configuration not stated)    inactive
O=C(CS)Nc1ccc2ccccc2c1    inactive
Cc1c(C(=O)O)c(=O)n(-c2ccccc2)n1C    inactive

Incoming: Identify the outcome logged in this assay for the compound shown: `O=C(O)[C@@H]1[C@H]2C[C@H]3c4[nH]c5ccccc5c4CCN3C[C@@H]2CC[C@@H]1O`
Outgoing: inactive

---

# Tested on: HCT-116 colon
# Assay Summary: NCI-60 one-dose screen, 48 h (100 = growth as untreated, 0 = no growth, -100 = all killed)
# Condition Set: 10 µM
About 83,000 compounds went through this panel and 20% of them were active in at least one assay; those are over-represented in the sample as a whole.
I'd be grateful if you could share measured growth for these entries.
Numbers only, in %.

Consider the following illustrative entries.
Cc1cc(=O)cc(C)n1-c1ccccc1    98.4
O=C(O)/C=C/C(=O)NCc1ccccc1    106
C/C(=C\c1cc(Cl)ccc1OCC(=O)O)[N+](=O)[O-]    109
Cc1ccncc1C(N)=O    94.5
COc1cccc(/C=N/NC(=S)NC2CC3CCC2C3)c1O (stereo not drawn)    24.8

Please supply growth for each of the following items, keeping them in order.
1. CC1=C(/C=C/C(C)=C/C=C/C(C)=C/CO)C(C)(C)CCC1
2. Cc1ccc(C)n1-c1ccsc1C(=O)NNC(=O)CCl
3. COc1cc(C(=O)N/N=C/c2cccc([N+](=O)[O-])c2)cc(OC)c1OC
4. CCCCN(CCCC)CCCO
5. COc1cccc(O)c1O
6. c1ccc2c(c1)Sc1ccccc1S2

Outgoing:
1: 107; 2: 78; 3: 23.9; 4: 110; 5: 98.6; 6: 106

Please supply growth for each of the following items, keeping them in order.
1. c1ncc2[nH]cnc2n1
2. CCc1nn(Cc2ccccc2)c2nc(C)c(CCc3ccccc3)c(Cl)c12

Outgoing:
1. 92.4
2. 81.2

---

# Test system: ACHN renal
# Assay Summary: NCI-60 one-dose screen, 48 h (100 = growth as untreated, 0 = no growth, -100 = all killed)
# Condition Set: 10 µM
This is part of a sample that, as a whole, favours compounds with a hit. Of some 83,000 tested, about 20% had one in any assay.
Property: growth (%)
Numbers only, in %.

Consider the following illustrative entries.
CC(=O)Nc1cccc(NC(C)=O)n1    105
COc1ccc(C)cc1OC    115
CC(=O)Oc1ccc(Br)cc1C(=O)O    99.3
CC(=O)Nc1c(C)cc(C)cc1C    107
COC(=O)c1cc(-c2ccc(Cl)c(Cl)c2)[nH]c(=O)c1C#N    94.8
Cc1cc(OCCO)cc(C)c1Cl    116

Please supply growth for each of the following items, keeping them in order.
1. CC1Cc2ccccc2O1 (stereo not drawn)
2. c1ccc(Cc2ccccc2)cc1
3. Brc1cnc2ccccc2c1
4. COc1ccc(/C(C#N)=C2C=C/C(=N/O)c3ccccc3\2)cc1
5. CC1CCCCN1C(=S)Nc1ccc(S(=O)(=O)N2CCCCC2)cc1 (stereo not drawn)
6. Cc1cc(/C=C/c2ccc3cc(N(C)C)ccc3[n+]2C)c(C)n1-c1ccccc1
7. c1ccc(/C(=N\N=C(/c2ccccc2)c2cccs2)c2cccs2)cc1

Outgoing:
1: 101; 2: 107; 3: 98.2; 4: 22.6; 5: 99.8; 6: -83.5; 7: 89.8

---

I'd be grateful if you could share measured growth for these entries.
# System: A498 renal
# Assay Summary: NCI-60 one-dose screen, 48 h (100 = growth as untreated, 0 = no growth, -100 = all killed)
# Condition Set: 10 µM
# Description: Growth inhibition of the A498 human tumor cell line is measured as a screen for anti-cancer activity. Cells are grown in 96 well plates and exposed to the test compound for 48 hours. Compounds are tested at a single concentration, which is 10^-5 M for most compounds. The reported endpoint is percent growth (GI% or GIPRCNT), where numbers from 0 - 100% represent growth inhibition, and numbers from -100% - 0 represent cell death. For example, a value of 40 represents 60% growth inhibition. […]
About 83,000 compounds went through this panel and 20% of them were active in at least one assay; those are over-represented in the sample as a whole.
Give bare numbers, in %.

Consider the following illustrative entries.
Nc1ccccc1SC(CC(=O)c1ccccc1)c1c(Cl)cccc1Cl (configuration not stated)    79.1
O=S(=O)(O)CC(O)CN1CCN(CCO)CC1 (configuration not stated)    106
NC(C(=O)O)c1ccc([N+](=O)[O-])cc1 (configuration not stated)    107
CCCCC(CC)COC(C)=O (configuration not stated)    86.3
CC(C)(N)COS(=O)(=O)O    113
O=C(O)/C=C/C(=O)NCc1ccccc1    109

Next compound, please.
The reported value for `COc1ccc(NC(=O)CCl)cc1` in terms of growth is 120

---

# Test system: T-47D breast
# Assay Summary: NCI-60 one-dose screen, 48 h (100 = growth as untreated, 0 = no growth, -100 = all killed)
# Condition Set: 10 µM
# Experimental: Growth inhibition of the T-47D human tumor cell line is measured as a screen for anti-cancer activity. Cells are grown in 96 well plates and exposed to the test compound for 48 hours. Compounds are tested at a single concentration, which is 10^-5 M for most compounds. The reported endpoint is percent growth (GI% or GIPRCNT), where numbers from 0 - 100% represent growth inhibition, and numbers from -100% - 0 represent cell death. For example, a value of 40 represents 60% growth inhibition. […]
This is part of a sample that, as a whole, favours compounds with a hit. Of some 83,000 tested, about 20% had one in any assay. Active and inactive are the calls of the source. Rule for the calls: active = growth percent below 10; inactive = the rest.
I'd be grateful if you could share measured growth for these entries.

Consider the following illustrative entries.
O=C(O)C(O)c1ccccc1 (configuration not stated)    95.1% (inactive)
O=c1cc(-c2ccccc2)nc2cc(-c3ccco3)[nH]n12    65.4% (inactive)
CC(C)C(C#N)(C(C)C)C(C)C    104% (inactive)
COc1cccc(COC(=O)Nc2ccccc2)c1OC    93.1% (inactive)
CC1SC(N)=NC1=O (configuration not stated)    106% (inactive)
CCOC(=O)c1coc(C(=O)OCC)c1C(=O)OCC    117% (inactive)
C[N+](C)=c1ccc2nc3c(cc(Nc4ccccc4)c4ccccc43)oc-2c1    31.8% (inactive)
CC(=O)OCC(=O)[C@@]1(O)CC[C@H]2[C@@H]3CC[C@@H]4C[C@H](O)CC[C@]4(C)[C@H]3C(=O)C[C@@]21C    108% (inactive)

Please supply growth for each of the following items, keeping them in order.
1. Cc1cc(=O)cc(C)n1-c1ccccc1
2. COc1ccc(-c2cc3c(nn2)-c2ccccc2C3=O)cc1
3. COc1cc(/C=N\Nc2ccccc2)ccc1OC(=O)c1ccccc1
4. O=C(O)C(c1ccccc1)C(O)c1ccccc1 (configuration not stated)
5. O=C(Nc1cccc(NC(=O)Nc2cc(C(F)(F)F)ccc2Cl)c1)Nc1cc(C(F)(F)F)ccc1Cl
6. S=c1sc2ccccc2n1CN1CCCCC1
7. CC(=O)OCCO
8. C=CC(=O)OCCCCCCCC

Outgoing:
1: 91.7% (inactive); 2: 77.5% (inactive); 3: 36.1% (inactive); 4: 94.4% (inactive); 5: 8.32% (active); 6: 100% (inactive); 7: 109% (inactive); 8: 105% (inactive)

Please supply growth for each of the following items, keeping them in order.
1. C=CCCCCCCCCCOC(C)=O
2. O=C(NC1CCCCC1)OCc1c(COC(=O)NC2CCCCC2)c(-c2ccc(Cl)c(Cl)c2)n2c1CCC2
3. COc1ccc(NC(=O)CCl)cc1

Outgoing:
1. 97.9% (inactive)
2. 20.8% (inactive)
3. 62.7% (inactive)

Please supply growth for each of the following items, keeping them in order.
1. O=S(=O)(O)CC(O)CN1CCN(CCO)CC1 (configuration not stated)
2. COc1cc(C2c3cc4c(cc3C3OC(=O)C2C3CO)OCO4)cc(OC)c1OC (configuration not stated)
3. O=[N+]([O-])c1ccc(Sc2ccncn2)c([N+](=O)[O-])c1
4. Cc1cc(=O)[nH]c(NN=C2CCCC2)n1
5. Cc1cc(OCCO)cc(C)c1Cl
6. COC(=O)c1ccccc1N(C)C
7. O=C(NCc1ccco1)Nc1c(Cl)cc(Cl)cc1Cl
8. NCCC(=O)c1ccc(Cl)cc1

Outgoing:
["108% (inactive)", "70.6% (inactive)", "48.3% (inactive)", "103% (inactive)", "111% (inactive)", "93.5% (inactive)", "88.6% (inactive)", "91.4% (inactive)"]
